Origin of measurements: the NIST ThermoML archive (doi:10.1021/je300938w)

experiment: wn = mass fraction of the nth substance listed; settings: 298.15 K; 101 kPa; Liquid; Vibrating tube method; w1 = 0.1
quantity-name: mass density (kg/m3)

INSERT INTO results (molecule, quantity_name, reported_value) VALUES
  ('CC(O)CN(CC(C)O)CC(C)O (centres undefined) [triisopropanolamine] + O', 'mass density', 1004.3),
  ('CC(O)CNCC(C)O (centres undefined) [N-(2-hydroxypropyl)-2-hydroxy-1-propanamine] + O', 'mass density', 1003.53),
  ('OCCNCCO [diethanolamine] + O', 'mass density', 1009.09),
  ('CC(O)CN (centres undefined) [1-amino-2-propanol] + O', 'mass density', 999.182);

====

assay: wn = mass fraction of the nth substance listed; conditions: 343.15 K; 101 kPa; Liquid; Vibrating tube method; w1 = 0.25
quantity-name: mass density (kg/m3)

INSERT INTO measurements (compound, quantity_name, reported_value) VALUES
  ('CC(O)CN (centres undefined) [1-amino-2-propanol] + O', 'mass density', 977.059),
  ('CC(O)CNCC(C)O (centres undefined) [N-(2-hydroxypropyl)-2-hydroxy-1-propanamine] + O', 'mass density', 989.434),
  ('OCCNCCO [diethanolamine] + O', 'mass density', 1004.41),
  ('CC(O)CN(CC(C)O)CC(C)O (centres undefined) [triisopropanolamine] + O', 'mass density', 989.222);

====

test: wn = mass fraction of the nth substance listed; conditions: 328.15 K; 101 kPa; Liquid; Vibrating tube method; w1 = 0.1
quantity-name: mass density (kg/m3)

INSERT INTO results (molecule, quantity_name, reported_value) VALUES
  ('CC(O)CN (centres undefined) [1-amino-2-propanol] + O', 'mass density', 986.682),
  ('OCCNCCO [diethanolamine] + O', 'mass density', 996.992),
  ('CC(O)CNCC(C)O (centres undefined) [N-(2-hydroxypropyl)-2-hydroxy-1-propanamine] + O', 'mass density', 991.224),
  ('CC(O)CN(CC(C)O)CC(C)O (centres undefined) [triisopropanolamine] + O', 'mass density', 991.613);

====

experiment: wn = mass fraction of the nth substance listed; conditions: 313.15 K; 101 kPa; Liquid; Concentric cylinders viscometry; w1 = 0.2
quantity-name: viscosity (mPa·s)

INSERT INTO results (compound, reported_value) VALUES
  ('CC(O)CN (centres undefined) [1-amino-2-propanol] + O', 1.295),
  ('CC(O)CN(CC(C)O)CC(C)O (centres undefined) [triisopropanolamine] + O', 1.418),
  ('OCCNCCO [diethanolamine] + O', 1.295),
  ('CC(O)CNCC(C)O (centres undefined) [N-(2-hydroxypropyl)-2-hydroxy-1-propanamine] + O', 1.485);

====

experiment: wn = mass fraction of the nth substance listed; conditions: 318.15 K; 101 kPa; Liquid; Vibrating tube method; w1 = 0.1
quantity-name: mass density (kg/m3)

INSERT INTO assay_data (molecule, unit_text, reported_value) VALUES
  ('CC(O)CNCC(C)O (centres undefined) [N-(2-hydroxypropyl)-2-hydroxy-1-propanamine] + O', 'kg/m3', 996.055),
  ('CC(O)CN(CC(C)O)CC(C)O (centres undefined) [triisopropanolamine] + O', 'kg/m3', 996.561),
  ('OCCNCCO [diethanolamine] + O', 'kg/m3', 1001.71),
  ('CC(O)CN (centres undefined) [1-amino-2-propanol] + O', 'kg/m3', 991.552);

====

assay: wn = mass fraction of the nth substance listed; conditions: 323.15 K; 101 kPa; Liquid; Concentric cylinders viscometry; w1 = 0.25
quantity-name: viscosity (mPa·s)

INSERT INTO results (compound, reported_value) VALUES
  ('CC(O)CN(CC(C)O)CC(C)O (centres undefined) [triisopropanolamine] + O', 1.373),
  ('CC(O)CN (centres undefined) [1-amino-2-propanol] + O', 1.231),
  ('OCCNCCO [diethanolamine] + O', 1.266),
  ('CC(O)CNCC(C)O (centres undefined) [N-(2-hydroxypropyl)-2-hydroxy-1-propanamine] + O', 1.438);

====

test: wn = mass fraction of the nth substance listed; settings: 298.15 K; 101 kPa; Liquid; Concentric cylinders viscometry; w1 = 0.25
quantity-name: viscosity (mPa·s)

INSERT INTO results (compound, reported_value) VALUES
  ('CC(O)CN (centres undefined) [1-amino-2-propanol] + O', 2.444),
  ('CC(O)CN(CC(C)O)CC(C)O (centres undefined) [triisopropanolamine] + O', 2.857),
  ('CC(O)CNCC(C)O (centres undefined) [N-(2-hydroxypropyl)-2-hydroxy-1-propanamine] + O', 3.026),
  ('OCCNCCO [diethanolamine] + O', 2.376);

====

experiment: wn = mass fraction of the nth substance listed; settings: 298.15 K; 101 kPa; Liquid; Concentric cylinders viscometry; w1 = 0.15
quantity-name: viscosity (mPa·s)

INSERT INTO results (molecule, reported_value) VALUES
  ('CC(O)CN (centres undefined) [1-amino-2-propanol] + O', 1.569),
  ('CC(O)CN(CC(C)O)CC(C)O (centres undefined) [triisopropanolamine] + O', 1.71),
  ('CC(O)CNCC(C)O (centres undefined) [N-(2-hydroxypropyl)-2-hydroxy-1-propanamine] + O', 1.814),
  ('OCCNCCO [diethanolamine] + O', 1.503);

====

assay: wn = mass fraction of the nth substance listed; conditions: 333.15 K; 101 kPa; Liquid; Concentric cylinders viscometry; w1 = 0.2
quantity-name: viscosity (mPa·s)

INSERT INTO results (molecule, reported_value) VALUES
  ('OCCNCCO [diethanolamine] + O', 0.8673),
  ('CC(O)CN (centres undefined) [1-amino-2-propanol] + O', 0.8659),
  ('CC(O)CN(CC(C)O)CC(C)O (centres undefined) [triisopropanolamine] + O', 0.9186),
  ('CC(O)CNCC(C)O (centres undefined) [N-(2-hydroxypropyl)-2-hydroxy-1-propanamine] + O', 0.9512);

====

experiment: refractive index (Na D-line) (dimensionless); wn = mass fraction of the nth substance listed; details: 313.15 K; 101 kPa; Liquid; Standard Abbe refractometry; w1 = 0.15
quantity-name: refractive index

INSERT INTO measurements (molecule, quantity_name, reported_value) VALUES
  ('CC(O)CN (centres undefined) [1-amino-2-propanol] + O', 'refractive index', 1.35012),
  ('CC(O)CN(CC(C)O)CC(C)O (centres undefined) [triisopropanolamine] + O', 'refractive index', 1.35309),
  ('OCCNCCO [diethanolamine] + O', 'refractive index', 1.35208),
  ('CC(O)CNCC(C)O (centres undefined) [N-(2-hydroxypropyl)-2-hydroxy-1-propanamine] + O', 'refractive index', 1.35237);

====

assay: refractive index (Na D-line) (dimensionless); wn = mass fraction of the nth substance listed; conditions: 313.15 K; 101 kPa; Liquid; Standard Abbe refractometry; w1 = 0.05
quantity-name: refractive index

INSERT INTO measurements (compound, reported_value) VALUES
  ('OCCNCCO [diethanolamine] + O', 1.3372),
  ('CC(O)CN(CC(C)O)CC(C)O (centres undefined) [triisopropanolamine] + O', 1.33853),
  ('CC(O)CNCC(C)O (centres undefined) [N-(2-hydroxypropyl)-2-hydroxy-1-propanamine] + O', 1.33844),
  ('CC(O)CN (centres undefined) [1-amino-2-propanol] + O', 1.33668);

====

assay: wn = mass fraction of the nth substance listed; settings: 298.15 K; 101 kPa; Liquid; Vibrating tube method; w1 = 0.05
quantity-name: mass density (kg/m3)

INSERT INTO assay_data (compound, reported_value) VALUES
  ('CC(O)CN (centres undefined) [1-amino-2-propanol] + O', 998.574),
  ('CC(O)CN(CC(C)O)CC(C)O (centres undefined) [triisopropanolamine] + O', 1000.88),
  ('OCCNCCO [diethanolamine] + O', 1003.46),
  ('CC(O)CNCC(C)O (centres undefined) [N-(2-hydroxypropyl)-2-hydroxy-1-propanamine] + O', 1000.6);

====

test: wn = mass fraction of the nth substance listed; details: 328.15 K; 101 kPa; Liquid; Concentric cylinders viscometry; w1 = 0.15
quantity-name: viscosity (mPa·s)

INSERT INTO measurements (compound, unit_text, reported_value) VALUES
  ('CC(O)CN(CC(C)O)CC(C)O (centres undefined) [triisopropanolamine] + O', 'mPa·s', 0.8494),
  ('OCCNCCO [diethanolamine] + O', 'mPa·s', 0.7836),
  ('CC(O)CNCC(C)O (centres undefined) [N-(2-hydroxypropyl)-2-hydroxy-1-propanamine] + O', 'mPa·s', 0.9053),
  ('CC(O)CN (centres undefined) [1-amino-2-propanol] + O', 'mPa·s', 0.8113);
